- Test system: SNB-19 CNS
- assay_procedure: NCI tumour cell line growth inhibition, 48 h; in the data active means GI50 below about 0.43 µM; inactive means the rest
Assign a class; possible classes are class 1 = active, class 0 = inactive

                                        mol  classification
0  CC(=O)N[C@@H]1CCC[C@H](C(=O)Nc2cc(-c3cnn4c3CC(C)(C)C4)c(Cl)cn2)C1         class 1
1  CC(C)n1nc(C#Cc2cccc(NC(=O)c3cccc(C(F)(F)F)c3)c2)c2c(N)ncnc21         class 0
2  COc1cc(C(=O)/C=C/c2c(C(F)(F)F)nc3sccn23)cc(OC)c1OC         class 0

What did this assay record as the result for CCSc1nc(N)c2cnn(C)c2n1 ?
class 0

What did this assay record as the result for CN1CCN(C(=S)SCN2C(=O)c3ccccc3S2(=O)=O)CC1 ?
class 0

What did this assay record as the result for Nc1ccc2c(c1)CN1C(=O)c3ccccc3C1=N2 ?
class 0

What did this assay record as the result for COc1cc(C(=O)N/N=C/c2cccc([N+](=O)[O-])c2)cc(OC)c1OC ?
class 0

What did this assay record as the result for CCNC(=O)Oc1ccc(/C(=C(\C)c2ccc(Cl)cc2)c2ccc(OCCN3CCCCC3)cc2)cc1 ?
class 0

What did this assay record as the result for Cc1csc(Nc2nc(-c3cccc(Cl)c3)nc(C(Cl)(Cl)Cl)n2)n1 ?
class 0

* * *

- Tested on: SNB-19 CNS
- assay_procedure: NCI tumour cell line growth inhibition, 48 h
assay_endpoint: GI50

The cases that follow already have their GI50 on record.
>>> print(df.to_string())
                                   compound   result
0  CCCCCCN(CCCCCC)CC(O)c1cccc2ccc(Cl)cc12 (centres undefined)  12.9 µM
1  O=[N+]([O-])c1cccc(-c2ncc(-c3ccc(Cl)cc3Cl)[nH]2)c1  7.85 µM
2  COc1ccc(S(=O)(=O)NCCNc2nccc(-c3c(-c4ccccc4)nc4sccn34)n2)cc1  8.78 µM

Entry under review: CCCCCCCCCCCCNC(=O)[C@H]1CSC(c2ccc(OC)c(F)c2)N1 (some centres undefined) . Reported GI50?
1.95 µM

Entry under review: C[C@]12CC[C@@H]3c4ccc(O)cc4CC[C@H]3[C@@H]1CC[C@@H]2NS(=O)(=O)c1ccc(-c2ccccc2)cc1 . Reported GI50?
4.92 µM

Entry under review: CCC1(N2C(=O)c3c(F)c(F)c(F)c(F)c3C2=O)C(=O)NC(=O)N(c2ccccc2)C1=O (centres undefined) . Reported GI50?
3.93 µM

Entry under review: C=CC[PH+](c1ccccc1)c1ccccc1.C=CC[PH+](c1ccccc1)c1ccccc1.[Cl][Pt][Cl] . Reported GI50?
14.2 µM

Entry under review: O=C(CN=Cc1cccs1)CSC(c1ccccc1)c1ccccc1 . Reported GI50?
32.5 µM

Entry under review: CCOC(=O)C1=C(c2ccccc2)N(Cc2ccccc2)C2(O)C=CC(=O)C3C(=O)N(c4ccccc4)C(=O)C132 (centres undefined) . Reported GI50?
2 µM

* * *

- Tested on: COLO 205 colon
- assay_procedure: NCI tumour cell line growth inhibition, 48 h
assay_endpoint: TGI

Entry under review: C/C=C\C(CC(=O)O)CC(=O)NCCC1CN(S(=O)(=O)C(F)(F)F)c2ccccc21 (centres undefined) . Reported TGI?
> 100 µM
